Test: Brain distribution studies
Format: in vivo
Details: brain/plasma, iv; rat, intravenously 0.5 mg/mL/kg, 30 minutes later; read-out: brain Kp value (area ratio brain/plasma)

cpd smiles: CC(C)C1=C[C@@](C)(c2cc(NC(=O)c3ccc(C#N)cn3)ccc2F)N=C(N)S1
Kp at 0.5 h: 2.5

---

Molecular target: UniProt P10635
Sequence (P10635 whole entry): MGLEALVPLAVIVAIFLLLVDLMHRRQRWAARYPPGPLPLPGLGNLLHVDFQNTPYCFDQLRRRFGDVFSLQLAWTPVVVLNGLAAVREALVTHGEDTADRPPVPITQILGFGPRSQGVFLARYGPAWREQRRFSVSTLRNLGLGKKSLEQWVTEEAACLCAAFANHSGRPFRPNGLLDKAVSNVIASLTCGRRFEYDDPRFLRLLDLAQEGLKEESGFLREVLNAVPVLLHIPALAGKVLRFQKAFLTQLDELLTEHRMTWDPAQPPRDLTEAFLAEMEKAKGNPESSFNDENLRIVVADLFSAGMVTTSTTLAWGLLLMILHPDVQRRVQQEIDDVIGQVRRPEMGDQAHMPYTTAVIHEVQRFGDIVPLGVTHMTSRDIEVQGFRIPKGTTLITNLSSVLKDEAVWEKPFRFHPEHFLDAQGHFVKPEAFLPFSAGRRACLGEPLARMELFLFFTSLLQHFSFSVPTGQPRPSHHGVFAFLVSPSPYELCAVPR

compound: COCCNC(=O)C1=C[C@@](C)(c2cc(NC(=O)c3ccc(C#N)cn3)ccc2F)N=C(N)S1 [Compound I-2]
IC50: > 21 µM

---

Target: CYP1A2 (Homo sapiens)
Sequence (P05177 1-516): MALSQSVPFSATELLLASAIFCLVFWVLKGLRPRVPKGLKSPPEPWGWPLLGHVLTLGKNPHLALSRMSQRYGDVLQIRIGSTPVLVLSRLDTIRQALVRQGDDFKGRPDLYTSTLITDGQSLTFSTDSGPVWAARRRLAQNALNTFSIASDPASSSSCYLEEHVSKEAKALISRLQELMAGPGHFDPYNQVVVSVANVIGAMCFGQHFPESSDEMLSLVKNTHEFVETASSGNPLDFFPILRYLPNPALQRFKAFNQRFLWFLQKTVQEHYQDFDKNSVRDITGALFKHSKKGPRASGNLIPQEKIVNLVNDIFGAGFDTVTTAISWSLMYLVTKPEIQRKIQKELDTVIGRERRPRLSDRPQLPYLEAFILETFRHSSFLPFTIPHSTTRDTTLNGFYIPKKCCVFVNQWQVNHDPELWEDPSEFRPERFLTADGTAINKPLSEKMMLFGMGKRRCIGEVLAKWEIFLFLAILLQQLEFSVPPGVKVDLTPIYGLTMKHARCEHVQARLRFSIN
observed property: IC50

molecule: COCCNC(=O)C1=C[C@@](C)(c2cc(NC(=O)c3ccc(C#N)cn3)ccc2F)N=C(N)S1 [Compound I-2]
observed property: IC50
observed: > 21 µM
